Sourced from PubChem BioAssay AID328

# Test system: BDF1 mice, P388 leukemia ip, median survival T/C
# ASSAY_COMMENT: NCI In Vivo Anticancer Drug Screen. Data for tumor model P388 Leukemia (intraperitoneal) in B6D2F1 (BDF1) mice
# CONDITION: endpoint: median survival time; dose: 200.0 mg/kg/injection; schedule: Q04DX003 (ip); vehicle: saline with Tween-80; higher = longer survival
Inconclusive results and toxic doses are left out.
Record form. Attribute: T/C. Fill in for each entry.

q: // query T/C value for entry NC(=S)c1ccncc1
a: 86 % of control

q: // next record O=C1N=C2C=CC=CN2C(=O)C1Cc1ccccc1 (stereo not drawn)
a: 100 % of control

q: // next record N=C(N)c1ccc(C(=O)Oc2ccc([N+](=O)[O-])cc2)cc1
a: 109 % of control

q: // next record COc1cc(C=O)ccc1OCc1ccccc1
a: 109 % of control

q: // next record O=C(O)c1c[nH]n2c(=S)ncnc12
a: 87 % of control

q: // next record C=C(C)c1ccccc1S(=O)(=O)c1ccccc1C(C)(C)O
a: 110 % of control

q: // next record Cc1cc(O)n(Cc2ccccc2)c(=O)c1
a: 87 % of control

q: // next record Nc1nc(=O)[nH]c(N)c1N=O
a: 100 % of control

q: // next record CC(C)CC(=O)C1=C(O)C(Nc2ccccc2)=CC(=O)C1=Nc1ccccc1
a: 118 % of control

q: // next record O=C(Nc1ccccc1)Nn1cnc2ccccc2c1=O
a: 100 % of control

q: // next record c1ccc2c(c1)ccc1[nH]c3ccccc3c12
a: 112 % of control

q: // next record O=c1cc(Cl)c(=O)[nH][nH]1
a: 91 % of control

q: // next record Cn1c(N)c(N=Cc2ccc(Cl)cc2)c(=O)n(C)c1=O
a: 99 % of control
